molecular target: Protein translocase subunit SecA (Escherichia coli (strain K12)) (UniProt P10408); test: Assay to Identify E. coli SecA ATPase Inhibitors; format: functional; parameters: scale not given: direction of the effect not stated beside the values; conditions: 30 µM
Sequence (P10408 whole entry): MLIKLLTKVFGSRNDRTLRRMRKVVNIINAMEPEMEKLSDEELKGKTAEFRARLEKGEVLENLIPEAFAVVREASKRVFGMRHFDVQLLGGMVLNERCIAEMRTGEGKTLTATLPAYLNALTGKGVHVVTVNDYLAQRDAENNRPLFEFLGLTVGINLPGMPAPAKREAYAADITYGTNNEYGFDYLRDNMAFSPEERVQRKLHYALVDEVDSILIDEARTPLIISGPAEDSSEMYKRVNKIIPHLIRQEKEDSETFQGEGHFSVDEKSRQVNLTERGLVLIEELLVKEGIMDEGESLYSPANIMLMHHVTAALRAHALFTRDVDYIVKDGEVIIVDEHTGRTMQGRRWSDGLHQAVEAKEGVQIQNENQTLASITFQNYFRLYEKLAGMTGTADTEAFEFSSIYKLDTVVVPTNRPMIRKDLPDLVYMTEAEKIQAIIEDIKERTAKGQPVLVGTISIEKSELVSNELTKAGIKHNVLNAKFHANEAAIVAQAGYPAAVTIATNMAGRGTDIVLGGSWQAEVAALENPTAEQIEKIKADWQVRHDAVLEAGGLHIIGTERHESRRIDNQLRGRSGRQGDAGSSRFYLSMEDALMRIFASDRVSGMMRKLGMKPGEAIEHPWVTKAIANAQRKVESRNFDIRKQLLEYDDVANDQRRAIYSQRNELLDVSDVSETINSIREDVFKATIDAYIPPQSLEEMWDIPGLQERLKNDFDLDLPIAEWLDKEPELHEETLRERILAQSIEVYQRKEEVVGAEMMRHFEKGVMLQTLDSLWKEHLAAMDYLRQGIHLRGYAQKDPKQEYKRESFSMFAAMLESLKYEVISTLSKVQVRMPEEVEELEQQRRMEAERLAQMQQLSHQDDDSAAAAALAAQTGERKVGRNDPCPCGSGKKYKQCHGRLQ
Measured potencies and affinities stand elsewhere.
// reported Percent Effect per item
assay_readout: Percent Effect (%)

compound	experimental_system	endpoint_value
O=C(NCCn1ccnc1)N1CCCC1c1ccsc1 (stereo unspecified)	Protein translocase subunit SecA (Escherichia coli (strain K12)) (UniProt P10408)	-1.45
COc1ccccc1-c1cc(C(F)(F)F)c2c(C)nn(CC(=O)O)c2n1	Protein translocase subunit SecA (Escherichia coli (strain K12)) (UniProt P10408)	5.48
Cc1cnn(CC(C)NCc2ccc(-n3cccn3)cc2)c1 (stereo unspecified)	Protein translocase subunit SecA (Escherichia coli (strain K12)) (UniProt P10408)	-1.91
CCc1nc(C2CCCN(C(=O)c3cn(C)nc3C)C2)no1 (stereo unspecified)	Protein translocase subunit SecA (Escherichia coli (strain K12)) (UniProt P10408)	-2.94
Cc1nc(-c2ccccc2F)sc1C(=O)N1CCN(C)CC1	Protein translocase subunit SecA (Escherichia coli (strain K12)) (UniProt P10408)	-7.34
CN1CC(=O)N(c2ccccc2)CC12CCN(CC1CC1)C2 (stereo unspecified)	Protein translocase subunit SecA (Escherichia coli (strain K12)) (UniProt P10408)	-2.12

---

// reported Percent Effect per item
target: Proteasome subunit beta (Trypanosoma cruzi); experiment: Trypanosoma cruzi proteasome chymotrypsin-like activity (TcProtChymo) assay.; type: functional; design: scale not given: in the data most compounds retested in dose-response had high values; details: 9.37 µM
assay_readout: Percent Effect (%)

molecule	quantity_unit	endpoint_value
CC(NC(=O)NCCCc1n[nH]c(N)c1C#N)c1cccs1 (configuration not stated)	%	16.6
O=C(Nc1ccccc1)N1CCn2nnc(COc3cccnc3)c2C1	%	5.56
CC(=O)NCC(=O)N1CCOC2(CCCN(c3cccnc3)C2)C1 (configuration not stated)	%	15.3
CC(C)CCN1CCN(Cc2nc(C3CC3)no2)CC1	%	9.38
O=C(c1cc2cc(F)ccc2[nH]1)N1CCC(Nc2cccnn2)CC1	%	10.7
Cc1nc(C)n(CC2CCCN2CCOc2ccc(C#N)cc2)n1 (configuration not stated)	%	1.06
Cn1c(CN2CCCC2)nnc1C1CCCN(C(=O)C2CCOCC2)C1 (configuration not stated)	%	8.1
Cc1nc(CNC(=O)NCC(O)c2ccc(F)cc2F)cs1 (configuration not stated)	%	9.75
CCn1cc(CN2CCCN(C(=O)c3sccc3C#N)CC2)cn1	%	-7.94
COCc1nc(C(=O)NS(=O)(=O)c2ccc(C)cc2C)cs1	%	-6.23
Cc1cc(C(=O)NCc2ccccn2)no1	%	6.49
CCc1nccn1C1CCCN(C(=O)Cc2cn3ccccc3n2)C1 (configuration not stated)	%	13.2

---

target: Tyrosyl-tRNA synthetase, putative (Trypanosoma cruzi (strain CL Brener)); assay: Trypanosoma cruzi tyrosyl tRNA synthetase (TcYRS) SOP; format: functional; design: scale not given: direction of the effect not stated beside the values; details: 30 µM

molecule	experimental_system	quantity_unit	Percent Effect
O=C(c1cccnc1)N1CCn2nnc(COc3cccnc3)c2C1	Tyrosyl-tRNA synthetase, putative (Trypanosoma cruzi (strain CL Brener))	%	7.69
CC(=O)NCc1ccc(C(=O)N2CCCCC2Cn2cccn2)o1 (stereo not given)	Tyrosyl-tRNA synthetase, putative (Trypanosoma cruzi (strain CL Brener))	%	18.3
COCCN1CCc2cc(C(=O)N(C)C)c(NCC3CC3)nc2CC1	Tyrosyl-tRNA synthetase, putative (Trypanosoma cruzi (strain CL Brener))	%	11.1
CN1CCCC1CNC(=O)CCCOCc1ccccc1 (stereo not given)	Tyrosyl-tRNA synthetase, putative (Trypanosoma cruzi (strain CL Brener))	%	7.32
Cc1nnc(NCc2ccccc2Cl)c(C#N)c1C	Tyrosyl-tRNA synthetase, putative (Trypanosoma cruzi (strain CL Brener))	%	11
Cc1nn(C)c2c(NCc3cccnc3)nc(C3CC3)nc12	Tyrosyl-tRNA synthetase, putative (Trypanosoma cruzi (strain CL Brener))	%	13.6
Cc1cc(CN2CCCC2Cn2cncn2)no1 (stereo not given)	Tyrosyl-tRNA synthetase, putative (Trypanosoma cruzi (strain CL Brener))	%	20.5
COc1cc2cc(C(=O)N[C@@H](C)C(=O)O)n(C)c2c(OC)c1OC	Tyrosyl-tRNA synthetase, putative (Trypanosoma cruzi (strain CL Brener))	%	7.69
COc1ccc(CNC2CCCN(Cc3noc(C)n3)C2)cc1F (stereo not given)	Tyrosyl-tRNA synthetase, putative (Trypanosoma cruzi (strain CL Brener))	%	-2.44
CCn1cc(CN(C)S(=O)(=O)c2cnn(CC)c2C)c(C)n1	Tyrosyl-tRNA synthetase, putative (Trypanosoma cruzi (strain CL Brener))	%	10
CCS(=O)(=O)N1CCC2(CC1)CC(Oc1ccccn1)CO2 (stereo not given)	Tyrosyl-tRNA synthetase, putative (Trypanosoma cruzi (strain CL Brener))	%	3.85
c1ccc(CCNC2CCc3ncnn3C2)nc1 (stereo not given)	Tyrosyl-tRNA synthetase, putative (Trypanosoma cruzi (strain CL Brener))	%	23.5
Cc1cnn(CC2CCCN2C(=O)c2cccc(CC#N)c2)c1 (stereo not given)	Tyrosyl-tRNA synthetase, putative (Trypanosoma cruzi (strain CL Brener))	%	1.27
CC(O)CN1CCN(C(=O)c2ccc(Br)o2)CC1 (stereo not given)	Tyrosyl-tRNA synthetase, putative (Trypanosoma cruzi (strain CL Brener))	%	9.76
CCn1nc(C)c(CCNC(=O)C2CCCN(C(=O)N(C)C)C2)c1C (stereo not given)	Tyrosyl-tRNA synthetase, putative (Trypanosoma cruzi (strain CL Brener))	%	4.88
c1csc(CN2CCO[C@H]3[C@H](OCCN4CCCC4)CC[C@@H]32)n1	Tyrosyl-tRNA synthetase, putative (Trypanosoma cruzi (strain CL Brener))	%	11.1
Cc1ccc(Cl)cc1N1CCC(CNC(=O)CCn2ccnc2)C1 (stereo not given)	Tyrosyl-tRNA synthetase, putative (Trypanosoma cruzi (strain CL Brener))	%	22.9
Cc1ccnc(OCC(=O)N2CCC(C(N)=O)CC2)n1	Tyrosyl-tRNA synthetase, putative (Trypanosoma cruzi (strain CL Brener))	%	15
CC(C)(C)c1nnc(CN2CCN(S(C)(=O)=O)CC2)o1	Tyrosyl-tRNA synthetase, putative (Trypanosoma cruzi (strain CL Brener))	%	12.2
Cc1cnn(CC2CCCN2C(=O)c2ccc(OC(C)C)nc2)c1 (stereo not given)	Tyrosyl-tRNA synthetase, putative (Trypanosoma cruzi (strain CL Brener))	%	1.21
NC(=O)CC1CCN(C(=O)NCc2ccccc2-n2cccn2)CC1	Tyrosyl-tRNA synthetase, putative (Trypanosoma cruzi (strain CL Brener))	%	15.4
CC(C(=O)NCCOc1cccc(Cl)c1)n1cncn1 (stereo not given)	Tyrosyl-tRNA synthetase, putative (Trypanosoma cruzi (strain CL Brener))	%	13.9
CN(C)CC1(O)CCN(S(=O)(=O)c2ccc(F)c(F)c2)C1 (stereo not given)	Tyrosyl-tRNA synthetase, putative (Trypanosoma cruzi (strain CL Brener))	%	6.49
Cc1ccc(CNC(=O)N2CCN(Cc3ccsc3)CC2)n1C	Tyrosyl-tRNA synthetase, putative (Trypanosoma cruzi (strain CL Brener))	%	-17.9
Cc1nc(C)n(CC2CCCCN2Cc2ncc(C(C)(C)C)o2)n1 (stereo not given)	Tyrosyl-tRNA synthetase, putative (Trypanosoma cruzi (strain CL Brener))	%	24.4

---

biological target: Protein translocase subunit SecA (Escherichia coli (strain K12)) (UniProt P10408); test: Assay to Identify E. coli SecA ATPase Inhibitors; format: functional; design: scale not given: direction of the effect not stated beside the values; settings: 30 µM
Measured potencies and affinities stand elsewhere.

molecule	Percent Effect (%)
CC(C)c1cc(NC(=O)CN2CCc3c(nc(C(C)C)n3C)C2)on1	-0.514
Cc1ccc(N2CCN(C(=O)COc3ccccc3)CC2)nn1	-2.94
COc1cccc(C(=O)N2CCCC(c3cc(C)[nH]n3)C2)c1OC (stereo unspecified)	-3.02
CCC(=O)N1CCC(c2nc3ccc(NC(C)C)cn3n2)CC1	-5.82
CCn1cc(NC(=O)NCC(O)CN2CCc3ccccc3C2)cn1 (stereo unspecified)	-1.09
O=C(Nc1cc(F)ccc1OCC1CCCO1)c1ccccn1 (stereo unspecified)	-2.56
CC1CN(CC2CCCCC2)CCN1c1ccc2nncn2n1 (stereo unspecified)	3.17
COc1ccc(C2=CCN(C(=O)CN(C)CC(N)=O)CC2)cc1	-1.62
Cc1cc(CN(C)C(=O)c2ccc(Cl)c(S(C)(=O)=O)c2)no1	-9.03
Cc1nn(C)c2c(NCc3cccnc3)nc(C3CC3)nc12	-3.37
CC1CCN(c2ncc3c(n2)CN(c2ccc4c(c2)OCO4)C3=O)CC1	-4.8

---

molecular target: Sialic acid-binding Ig-like lectin 9 (Homo sapiens) (UniProt Q9Y336); assay: Hs-Siglec9 ALPHAscreen SOP 20170721; parameters: scale not given: direction of the effect not stated beside the values; settings: 10 µM
Sequence (Q9Y336 whole entry): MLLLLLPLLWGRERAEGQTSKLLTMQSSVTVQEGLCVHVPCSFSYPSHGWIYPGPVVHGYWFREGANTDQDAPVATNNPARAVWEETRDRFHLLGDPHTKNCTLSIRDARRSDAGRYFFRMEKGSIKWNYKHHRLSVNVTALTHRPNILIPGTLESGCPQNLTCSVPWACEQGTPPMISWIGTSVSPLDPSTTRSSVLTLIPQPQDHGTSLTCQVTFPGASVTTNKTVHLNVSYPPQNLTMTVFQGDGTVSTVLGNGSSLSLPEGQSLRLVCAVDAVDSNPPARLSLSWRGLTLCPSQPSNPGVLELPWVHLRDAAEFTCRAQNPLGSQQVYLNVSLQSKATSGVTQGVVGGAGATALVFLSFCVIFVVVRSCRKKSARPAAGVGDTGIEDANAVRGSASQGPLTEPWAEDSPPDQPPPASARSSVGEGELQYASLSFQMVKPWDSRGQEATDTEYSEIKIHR
assay_readout: Percent Effect

compound	endpoint_value
COCCOCc1cccc(NC(=O)N2CCCC2c2ccncc2)c1 (stereo unspecified)	1.28%
Cc1cc(C)n(CC(=O)N(C)Cc2csc(-c3cccs3)n2)c(=O)n1	2.64%
CCN1Cc2c(C(=O)NCC3CC3)ncn2-c2ccccc2S1(=O)=O	4.85%
Cc1ccc(Nc2nccc(C3CCCN(CC(=O)N(C)C)C3)n2)nc1 (stereo unspecified)	6.73%
CNc1cc2c(nn1)CCN(C(=O)C1CCCc3ccccc31)C2 (stereo unspecified)	1.73%
O=C(c1cscn1)N1C[C@@H]2[C@@H](C1)OCC(=O)N2CC1CCCC1	6.36%
